Cited source for all entries: patent US20250011363A1

- TGT: acetylcholine receptor
- MEASUREMENT_NOTES: SPR, AchR immobilized on chip, peptide 10 uM
QUANTITY_NAME: Binding affinity (RU)

For orientation, consider the following solved cases.
BINDER | QUANTITY_NAME | DISPLAY_UNIT | MEASURED_NUMBER
KVRSR [5mer-488] | Binding affinity (RU) | RU | 58
RVLYK [5mer-176] | Binding affinity (RU) | RU | 52

[1] RLVQR [5mer-473]
[2] RGYQR [5mer-162]
Please indicate which entry, 1 or 2 , has the lower recorded Binding affinity (RU) value. When you have decided, please share the label of that item.
2
(2: 51 RU, 1: 75 RU)
